assay-summary: A CellTox Green Cytotoxicity Assay to monitor cytotoxicity in HEK293 cells - 24 hour (AID 1224875); note: % is set by controls: 0 for no effect and ±100 for the full control effect; nearly all actives have a fitted effect of over 45% in size
condition-description: CellTox Green fluorescence; series mostly up to 76.8 µM
Inconclusive results are not listed. The source made the active and inactive calls. Calls come from the whole dose curve; as a rule, active = well fitted activation curve with a large enough effect in the repeat runs; inconclusive = weak or mixed curves; inactive = flat fitted curve, though single readings scatter.

{"sample-smiles": "Cc1ccc(Cl)cc1Cl", "activity change": "inactive"}
{"sample-smiles": "CCOC(=O)[C@H](CCc1ccccc1)N[C@@H](C)C(=O)N1[C@H](C(=O)O)C[C@@H]2CCC[C@@H]21", "activity change": "inactive"}
{"sample-smiles": "Nc1ccccc1S(=O)(=O)O", "activity change": "inactive"}

---

assay-summary: qHTS assay for small molecule disruptors of the mitochondrial membrane potential - cell viability (AID 720634);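 note: human HepG2 liver cancer cells; % is set by controls: 0 for no effect and ±100 for the full control effect; nearly all actives have a fitted effect of over 20% in size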
condition-description: HepG2 viability, ATP luminescence (CellTiter-Glo), 1 h; series mostly up to 83.2 µM
Inconclusive results are not listed. The source made the active and inactive calls. Calls come from the whole dose curve.
parameter: activity change, negative = cytotoxicity

{"molecule": "CC(=O)N(CC(O)CO)c1c(I)c(C(=O)NCCO)c(I)c(C(=O)NCC(O)CO)c1I (centres undefined)", "parameter": "activity change, negative = cytotoxicity", "observed-result": "inactive"}
{"molecule": "CCCCCCCCS(=O)(=O)Cl", "parameter": "activity change, negative = cytotoxicity", "observed-result": "inactive"}
{"molecule": "O=c1cc(CO)occ1O", "parameter": "activity change, negative = cytotoxicity", "observed-result": "inactive"}
{"molecule": "NC(=O)c1ccc([N+](=O)[O-])cc1", "parameter": "activity change, negative = cytotoxicity", "observed-result": "inactive"}
{"molecule": "CCCCCCCCCCCCCC=O", "parameter": "activity change, negative = cytotoxicity", "observed-result": "12.2% [at 8.08 µM] (inactive)"}
{"molecule": "CCCCNC(=O)NCCCC", "parameter": "activity change, negative = cytotoxicity", "observed-result": "inactive"}
{"molecule": "C=C[Si](OC(=C)C)(OC(=C)C)OC(=C)C", "parameter": "activity change, negative = cytotoxicity", "observed-result": "inactive"}
{"molecule": "CC(C)(O)C(=O)c1ccccc1", "parameter": "activity change, negative = cytotoxicity", "observed-result": "inactive"}
{"molecule": "CO[C@]12C[C@@H](COC(=O)c3cncc(Br)c3)CN(C)[C@@H]1Cc1cn(C)c3cccc2c13", "parameter": "activity change, negative = cytotoxicity", "observed-result": "inactive"}
{"molecule": "O=C(O)CCCl", "parameter": "activity change, negative = cytotoxicity", "observed-result": "inactive"}
{"molecule": "CC1=CC(C)C(C=O)CC1 (centres undefined)", "parameter": "activity change, negative = cytotoxicity", "observed-result": "inactive"}
{"molecule": "CC(C)NC(=O)NC(C)C", "parameter": "activity change, negative = cytotoxicity", "observed-result": "inactive"}
{"molecule": "NS(=O)(=O)c1ccc(C(=O)O)cc1", "parameter": "activity change, negative = cytotoxicity", "observed-result": "inactive"}
{"molecule": "OC1CCCCC1c1ccccc1 (centres undefined)", "parameter": "activity change, negative = cytotoxicity", "observed-result": "inactive"}

---

system: Estrogen receptor (Homo sapiens) (UniProt P03372)
Sequence (P03372 whole entry, looked up): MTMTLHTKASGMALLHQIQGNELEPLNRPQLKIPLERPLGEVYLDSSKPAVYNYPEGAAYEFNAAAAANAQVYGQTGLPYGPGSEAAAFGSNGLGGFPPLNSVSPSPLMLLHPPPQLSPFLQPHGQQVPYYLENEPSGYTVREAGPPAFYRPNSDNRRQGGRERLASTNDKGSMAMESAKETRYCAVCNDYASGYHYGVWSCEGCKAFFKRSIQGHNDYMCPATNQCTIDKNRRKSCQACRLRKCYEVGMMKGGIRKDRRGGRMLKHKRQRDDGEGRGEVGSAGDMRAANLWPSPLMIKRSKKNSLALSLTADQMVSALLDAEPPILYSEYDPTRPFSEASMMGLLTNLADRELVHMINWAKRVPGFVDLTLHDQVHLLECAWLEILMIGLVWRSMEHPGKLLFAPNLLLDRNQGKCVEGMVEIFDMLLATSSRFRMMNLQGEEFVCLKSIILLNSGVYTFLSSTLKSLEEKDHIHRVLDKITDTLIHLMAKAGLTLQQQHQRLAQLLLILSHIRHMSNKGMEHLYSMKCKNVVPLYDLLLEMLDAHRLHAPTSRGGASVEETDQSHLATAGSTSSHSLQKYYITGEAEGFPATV
assay-summary: qHTS assay to identify small molecule agonists of the estrogen receptor alpha (ER-alpha) signaling pathway in the presence of an antagonist (AID 1259383); note: top concentration of the series differs between compounds; % is set by controls: 0 for no effect and ±100 for the full control effect; nearly all actives have a fitted effect of over 15% in size
condition-description: VM7Luc4E2 cells, ERE-luciferase, +ICI-182,780, 22 h; series mostly up to 92.4 µM
Active and inactive are the calls of the source. Calls follow the shape of the full dose curve.

{"compound": "CCO/C([O-])=N/c1c[n+](N2CCOCC2)no1", "system": "Estrogen receptor (Homo sapiens) (UniProt P03372)", "activation": "inactive"}
{"compound": "CC(=O)Nc1c(I)cc(I)c(C(=O)O)c1I", "system": "Estrogen receptor (Homo sapiens) (UniProt P03372)", "activation": "inactive"}
{"compound": "Nc1c[n+](N2CCOCC2)no1", "system": "Estrogen receptor (Homo sapiens) (UniProt P03372)", "activation": "inactive"}
{"compound": "N#Cc1ccc(C2CCCc3cncn32)cc1 (centres undefined)", "system": "Estrogen receptor (Homo sapiens) (UniProt P03372)", "activation": "inactive"}
{"compound": "C=CCCCCCCCCC=O", "system": "Estrogen receptor (Homo sapiens) (UniProt P03372)", "activation": "inactive"}
{"compound": "Cc1sccc1Br", "system": "Estrogen receptor (Homo sapiens) (UniProt P03372)", "activation": "inactive"}
{"compound": "NC(=O)c1ccc(N)cc1", "system": "Estrogen receptor (Homo sapiens) (UniProt P03372)", "activation": "inactive"}
{"compound": "Cc1nc2c([nH]1)c(=O)n(C)c(=O)n2Cc1ccco1", "system": "Estrogen receptor (Homo sapiens) (UniProt P03372)", "activation": "inactive"}
{"compound": "CC(C)c1cc2c(cc1S(=O)(=O)O)[C@@]1(C)CCC[C@@](C)(C(=O)O)[C@@H]1CC2", "system": "Estrogen receptor (Homo sapiens) (UniProt P03372)", "activation": "inactive"}
{"compound": "CCn1nc(C(=O)O)c(=O)c2cc3c(cc21)OCO3", "system": "Estrogen receptor (Homo sapiens) (UniProt P03372)", "activation": "inactive"}
{"compound": "NC(=O)Nc1ccccc1", "system": "Estrogen receptor (Homo sapiens) (UniProt P03372)", "activation": "inactive"}
{"compound": "O=C1CCCN1C1CCCCC1", "system": "Estrogen receptor (Homo sapiens) (UniProt P03372)", "activation": "inactive"}
{"compound": "Cn1cc(S(C)=O)c(=O)c2ccc(F)cc21 (centres undefined)", "system": "Estrogen receptor (Homo sapiens) (UniProt P03372)", "activation": "inactive"}
{"compound": "Cc1ccc(Cl)cc1Cl", "system": "Estrogen receptor (Homo sapiens) (UniProt P03372)", "activation": "inactive"}
